target: human α9α10 nAChR (Homo sapiens, UniProt Q9GZZ6+Q9UGM1)
Sequence (Q9UGM1 26-479 limits assumed): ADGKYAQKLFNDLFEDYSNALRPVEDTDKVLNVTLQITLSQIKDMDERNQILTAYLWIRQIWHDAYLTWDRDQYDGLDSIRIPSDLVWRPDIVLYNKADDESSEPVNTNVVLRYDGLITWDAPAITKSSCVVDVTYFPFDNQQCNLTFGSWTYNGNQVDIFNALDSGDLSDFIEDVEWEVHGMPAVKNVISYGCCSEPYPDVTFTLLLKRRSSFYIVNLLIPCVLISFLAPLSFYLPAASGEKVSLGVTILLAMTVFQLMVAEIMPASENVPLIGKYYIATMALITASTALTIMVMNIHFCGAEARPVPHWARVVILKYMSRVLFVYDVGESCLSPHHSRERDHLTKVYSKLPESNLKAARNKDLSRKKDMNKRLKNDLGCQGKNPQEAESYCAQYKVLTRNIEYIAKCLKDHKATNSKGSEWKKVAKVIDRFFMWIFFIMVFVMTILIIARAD
Sequence (Q9GZZ6 25-450 limits assumed): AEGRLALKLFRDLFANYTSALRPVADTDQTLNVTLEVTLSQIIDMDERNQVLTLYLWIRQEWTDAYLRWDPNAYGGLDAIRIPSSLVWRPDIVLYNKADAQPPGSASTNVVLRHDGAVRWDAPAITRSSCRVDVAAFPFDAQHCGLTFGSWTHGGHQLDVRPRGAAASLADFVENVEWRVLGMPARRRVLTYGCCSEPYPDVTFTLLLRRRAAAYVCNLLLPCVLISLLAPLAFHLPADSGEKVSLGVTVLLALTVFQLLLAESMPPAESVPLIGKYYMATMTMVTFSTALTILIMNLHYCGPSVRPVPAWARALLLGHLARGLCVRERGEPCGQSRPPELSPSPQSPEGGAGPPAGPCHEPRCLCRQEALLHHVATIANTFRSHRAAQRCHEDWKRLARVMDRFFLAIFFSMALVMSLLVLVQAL
test_protocol: cell-based
Format: cell-based
We begin with a simple list: items and their reported Fold improvement.
Note: unit fold is implicit; provide only the numeric part.

* C[C@@H](O)[C@@H]1NC(=O)[C@@H]2CSSC[C@@H](C(=O)N[C@@H](Cc3ccc(O)cc3)C(=O)N[C@@H](CCCNC(=N)N)C(=O)O)NC(=O)[C@H](CCC(N)=O)NC(=O)[C@H](Cc3ccc(O)c(I)c3)NC(=O)[C@H](CCCNC(N)=O)NC(=O)[C@H](CSSC[C@H](NC(=O)CN)C(=O)N2)NC(=O)[C@H](CCCNC(=N)N)NC(=O)[C@@H]2CCCN2C(=O)[C@H](CC(=O)O)NC1=O | 598

Now take the following compound into account.
Which Fold improvement reading was recorded for the compound C[C@@H](O)[C@@H]1NC(=O)[C@@H]2CSSC[C@@H](C(=O)N[C@@H](Cc3ccccc3)C(=O)O)NC(=O)[C@H](CCC(N)=O)NC(=O)[C@H](Cc3ccc(O)c(I)c3)NC(=O)[C@H](CCCNC(N)=O)NC(=O)[C@H](CSSC[C@H](NC(=O)CN)C(=O)N2)NC(=O)[C@H](CCCNC(=N)N)NC(=O)[C@@H]2CCCN2C(=O)[C@H](CC(=O)O)NC1=O ? 470

###

In this section we review reported IC50 values for a set of compounds.
target: human α9α10 nAChR (Homo sapiens, UniProt Q9GZZ6+Q9UGM1)
test_protocol: cell-based
The figure you give is taken to be in nM; do not add the unit.

• C[C@@H](O)[C@@H]1NC(=O)[C@@H]2CSSC[C@@H](C(=O)N[C@@H](Cc3ccc(O)cc3)C(=O)N[C@@H](Cc3ccc(O)cc3)C(=O)O)NC(=O)[C@H](CCC(N)=O)NC(=O)[C@H](Cc3ccc(O)c(I)c3)NC(=O)[C@H](CCCNC(N)=O)NC(=O)[C@H](CSSC[C@H](NC(=O)CN)C(=O)N2)NC(=O)[C@H](CCCNC(=N)N)NC(=O)[C@@H]2CCCN2C(=O)[C@H](CC(=O)O)NC1=O = 0.893
• C[C@@H](O)[C@@H]1NC(=O)[C@@H]2CSSC[C@@H](C(=O)N[C@@H](Cc3ccccc3)C(=O)O)NC(=O)[C@H](CCC(N)=O)NC(=O)[C@H](Cc3ccc(O)c(I)c3)NC(=O)[C@H](CCCNC(N)=O)NC(=O)[C@H](CSSC[C@H](NC(=O)CN)C(=O)N2)NC(=O)[C@H](CCCNC(=N)N)NC(=O)[C@@H]2CCCN2C(=O)[C@H](CC(=O)O)NC1=O = 1.05

Moving on to the next compound.
Test system human α9α10 nAChR (Homo sapiens, UniProt Q9GZZ6+Q9UGM1); read-out IC50; what value for C[C@@H](O)[C@@H]1NC(=O)[C@@H]2CSSC[C@@H](C(=O)N[C@@H](Cc3c[nH]c4ccccc34)C(=O)O)NC(=O)[C@H](CCC(N)=O)NC(=O)[C@H](Cc3ccc(O)c(I)c3)NC(=O)[C@H](CCCNC(N)=O)NC(=O)[C@H](CSSC[C@H](NC(=O)CN)C(=O)N2)NC(=O)[C@H](CCCNC(=N)N)NC(=O)[C@@H]2CCCN2C(=O)[C@H](CC(=O)O)NC1=O ? 2.09

Ref: patent US10633417B2
